Reference for the values: ChEMBL document CHEMBL1139310

The entries below come with measured IC50 values attached.
# target_system: Insulin-like growth factor 1 receptor (Homo sapiens, UniProt P08069)
# Sequence (P08069 31-736 limits assumed): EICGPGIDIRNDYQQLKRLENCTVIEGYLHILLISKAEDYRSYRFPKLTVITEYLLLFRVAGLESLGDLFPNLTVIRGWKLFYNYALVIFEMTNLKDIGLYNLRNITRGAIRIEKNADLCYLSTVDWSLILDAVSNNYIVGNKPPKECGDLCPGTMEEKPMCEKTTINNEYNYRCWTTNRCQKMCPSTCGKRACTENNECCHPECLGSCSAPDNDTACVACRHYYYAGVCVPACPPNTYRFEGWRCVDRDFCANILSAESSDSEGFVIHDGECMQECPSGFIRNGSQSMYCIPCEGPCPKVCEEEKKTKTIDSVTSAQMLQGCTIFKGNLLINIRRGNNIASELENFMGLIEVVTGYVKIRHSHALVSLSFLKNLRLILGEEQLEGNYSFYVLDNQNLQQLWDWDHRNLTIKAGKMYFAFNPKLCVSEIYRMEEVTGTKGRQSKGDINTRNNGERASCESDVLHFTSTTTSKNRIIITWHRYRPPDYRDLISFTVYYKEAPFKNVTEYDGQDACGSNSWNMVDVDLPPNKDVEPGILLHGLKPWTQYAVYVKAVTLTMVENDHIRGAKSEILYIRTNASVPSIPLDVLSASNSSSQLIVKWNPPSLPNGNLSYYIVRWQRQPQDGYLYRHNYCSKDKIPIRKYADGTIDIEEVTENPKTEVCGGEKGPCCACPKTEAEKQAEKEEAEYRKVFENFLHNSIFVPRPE
# Sequence (P08069 741-1367 limits assumed): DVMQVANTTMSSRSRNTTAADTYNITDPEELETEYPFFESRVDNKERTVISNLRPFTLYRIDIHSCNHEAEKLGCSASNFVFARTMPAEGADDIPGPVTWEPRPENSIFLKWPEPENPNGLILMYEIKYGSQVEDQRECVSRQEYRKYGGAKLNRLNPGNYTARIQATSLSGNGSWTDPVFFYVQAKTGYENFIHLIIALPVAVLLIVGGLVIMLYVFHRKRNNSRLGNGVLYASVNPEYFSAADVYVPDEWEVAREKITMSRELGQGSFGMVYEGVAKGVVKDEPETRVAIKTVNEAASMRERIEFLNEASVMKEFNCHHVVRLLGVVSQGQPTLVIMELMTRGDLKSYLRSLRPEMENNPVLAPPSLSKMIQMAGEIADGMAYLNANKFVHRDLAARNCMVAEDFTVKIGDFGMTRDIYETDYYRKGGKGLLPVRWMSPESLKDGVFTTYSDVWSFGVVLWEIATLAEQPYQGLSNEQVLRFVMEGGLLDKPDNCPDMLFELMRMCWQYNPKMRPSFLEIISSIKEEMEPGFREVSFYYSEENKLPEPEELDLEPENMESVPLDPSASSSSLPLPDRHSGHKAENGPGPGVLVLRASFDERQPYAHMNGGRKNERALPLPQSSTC
Give the value, in units of nM, as a plain number.

COc1cc2c(Nc3ccc(Sc4nccn4C)c(Cl)c3)c(C#N)cnc2cc1N(C)CCCN(C)C 150

Switching to the query record.
Prompt: Name the recorded IC50 of the item `CCN1CCN(CCCOc2cc3ncc(C#N)c(Nc4ccc(Sc5nc(C)c(C)n5CC)c(Cl)c4)c3cc2OC)CC1` in your answer.
Completion: 9
